Numbers sourced from ChEMBL document CHEMBL1148857.

Test: Plasma clearance in rat at 0.3 mg/kg, iv
Type: ADME, organism-based
Parameters: dose 0.3 mg/kg, route intravenous

{"compound": "CN(Cc1ccccc1)C(=O)[C@@H](NC(=O)c1cc2cc(NC(=O)c3ccccc3-c3ccc(C(F)(F)F)cc3)ccc2n1C)c1ccccc1 [DIRLOTAPIDE]", "clearance [mL/min/kg]": 92}

----------
Experiment: AUC (0 to infinity) in portal cannulated Beagle dog at 1 mg/kg, iv
Format: ADME, organism-based, Canis lupus familiaris
Design: time infinity, dose 1 mg/kg, route intravenous
Conditions: plasma

{"compound": "CN(Cc1ccccc1)C(=O)[C@@H](NC(=O)c1cc2cc(NC(=O)c3ccccc3-c3ccc(C(F)(F)F)cc3)ccc2n1C)c1ccccc1 [DIRLOTAPIDE]", "AUC(0-inf) (ng·h/mL)": 2820}

----------
Experiment: AUC (0 to infinity) in male rat at 30 mg/kg, po
Type: ADME, organism-based
Design: time infinity, dose 30 mg/kg, route oral
Settings: plasma

{"compound": "CN(Cc1ccccc1)C(=O)[C@@H](NC(=O)c1cc2cc(NC(=O)c3ccccc3-c3ccc(C(F)(F)F)cc3)ccc2n1C)c1ccccc1 [DIRLOTAPIDE]", "AUC(0-inf) / ng·h/mL": 379}

----------
Assay: Plasma clearance in Beagle dog at 0.5 mg/kg, iv
Format: ADME, organism-based, Canis lupus familiaris
Parameters: dose 0.5 mg/kg, route intravenous

{"compound": "CN(Cc1ccccc1)C(=O)[C@@H](NC(=O)c1cc2cc(NC(=O)c3ccccc3-c3ccc(C(F)(F)F)cc3)ccc2n1C)c1ccccc1 [DIRLOTAPIDE]", "clearance, mL/min/kg": 5.5}

----------
Test system: CYP1A2
Assay: Metabolic stability in human liver microsome at 0.5 uM in presence of 5 uM CYP1A2 inhibitor furafylline
Type: ADME
Settings: liver microsomes, with 5 uM furafylline (CYP1A2 inhibitor)
quantity name: half-life at 0.5 µM (min)

{"compound": "CN(Cc1ccccc1)C(=O)[C@@H](NC(=O)c1cc2cc(NC(=O)c3ccccc3-c3ccc(C(F)(F)F)cc3)ccc2n1C)c1ccccc1 [DIRLOTAPIDE]", "quantity name": "half-life at 0.5 µM", "quantitative result": 45}

----------
Assay: AUC (0 to infinity) in rat at 5 mg/kg, iv
Assay type: ADME, organism-based
Design: time infinity, dose 5 mg/kg, route intravenous
Conditions: plasma

{"compound": "CN(Cc1ccccc1)C(=O)[C@@H](NC(=O)c1cc2cc(NC(=O)c3ccccc3-c3ccc(C(F)(F)F)cc3)ccc2n1C)c1ccccc1 [DIRLOTAPIDE]", "AUC(0-inf) [ng·h/mL]": 5890}

----------
Biological target: Cytochrome P450 2C9 (Homo sapiens)
Sequence (P11712 whole entry): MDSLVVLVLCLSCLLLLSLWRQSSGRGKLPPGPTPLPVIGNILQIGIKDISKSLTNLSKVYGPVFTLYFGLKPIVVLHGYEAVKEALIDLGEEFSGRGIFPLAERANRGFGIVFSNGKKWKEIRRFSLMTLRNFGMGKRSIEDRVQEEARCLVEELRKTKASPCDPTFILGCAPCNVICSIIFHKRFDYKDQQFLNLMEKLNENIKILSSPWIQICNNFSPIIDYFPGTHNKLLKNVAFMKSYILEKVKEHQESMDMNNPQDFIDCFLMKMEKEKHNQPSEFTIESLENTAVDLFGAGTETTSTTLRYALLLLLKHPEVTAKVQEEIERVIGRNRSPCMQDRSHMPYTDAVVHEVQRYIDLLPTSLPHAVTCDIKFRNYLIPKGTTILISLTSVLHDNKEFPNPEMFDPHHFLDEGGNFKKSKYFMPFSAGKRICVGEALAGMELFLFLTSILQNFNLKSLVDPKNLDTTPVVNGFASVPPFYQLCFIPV
pIC50: −log10 of the molar value.
quantity name: pIC50

{"molecule": "CN(Cc1ccccc1)C(=O)[C@@H](NC(=O)c1cc2cc(NC(=O)c3ccccc3-c3ccc(C(F)(F)F)cc3)ccc2n1C)c1ccccc1 [DIRLOTAPIDE]", "result": "< 4.52"}

----------
Experiment: Half life in rat at 5 mg/kg, iv
Type: ADME, organism-based
Parameters: dose 5 mg/kg, route intravenous
Conditions: in vivo
quantity name: half-life

{"molecule": "CN(Cc1ccccc1)C(=O)[C@@H](NC(=O)c1cc2cc(NC(=O)c3ccccc3-c3ccc(C(F)(F)F)cc3)ccc2n1C)c1ccccc1 [DIRLOTAPIDE]", "result": "11.3 h"}
